Provenance of the data: PubChem BioAssay AID1963447

Give measured viability, T/C for each item. Keep answers brief.
system: 885512-296-R-J2-PDC complex spheroid growth, % test/control; assay: Anticancer human tumor 885512-296-R-J2-PDC patient-derived breast carcinoma cell line growth inhibition [Asc]; conditions: second compound 0.0316 µM; first compound 0.0316 µM; hits give low values
Field format: number, assumed %, no unit text.

Lab book: viability, T/C of C=C(F)C(=O)N1CCN(c2nc(OCC3CCCN3C)nc3c2CCN(c2cccc4cccc(Cl)c24)C3)CC1CC#N (stereo not drawn) + CNC(C)C(=O)NC1CN(S(=O)(=O)c2cccc(S(=O)(=O)N3CCC4CCC(C(=O)NC(c5ccccc5)c5ccccc5)N4C(=O)C(NC(=O)C(C)NC)C3)c2)CCC2CCC(C(=O)NC(c3ccccc3)c3ccccc3)N2C1=O noted as 100

Data point: C#Cc1c(F)ccc2cc(O)cc(-c3ncc4c(N5CC6CCC(C5)N6)nc(OCC56CCCN5CC(F)C6)nc4c3F)c12 (stereo not drawn) + CNC(C)C(=O)NC1CN(S(=O)(=O)c2cccc(S(=O)(=O)N3CCC4CCC(C(=O)NC(c5ccccc5)c5ccccc5)N4C(=O)C(NC(=O)C(C)NC)C3)c2)CCC2CCC(C(=O)NC(c3ccccc3)c3ccccc3)N2C1=O ; viability, T/C = 102

Input O=C(c1ccc(F)c(F)c1Nc1ccc(I)cc1F)N1CC(O)([C@@H]2CCCCN2)C1 + CNC(C)C(=O)NC1CN(S(=O)(=O)c2cccc(S(=O)(=O)N3CCC4CCC(C(=O)NC(c5ccccc5)c5ccccc5)N4C(=O)C(NC(=O)C(C)NC)C3)c2)CCC2CCC(C(=O)NC(c3ccccc3)c3ccccc3)N2C1=O . Output viability, T/C: 78

====

tested on: 885512-296-R-J2-PDC complex spheroid growth, % test/control; assay: Anticancer human tumor 885512-296-R-J2-PDC cell line growth inhibition [Asc]; settings: second compound 10 µM; first compound 0.316 µM; hits give low values;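 note: spheroids exposed to compounds for seven days; 100% = DMSO vehicle control wells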
So I've got a bunch of compounds here, and I need their viability, T/C values.

The compound listed as C=CC(=O)N1CCN(c2nc(=O)n(-c3c(C)ccnc3C(C)C)c3nc(-c4c(O)cccc4F)c(F)cc23)C(C)C1 (stereo not drawn) + Cc1c(S(C)(=O)=O)c(-c2cc(F)cc(N3CCN(c4ccc(NS(=O)(=O)c5ccc(NC(CCN6CCC(C(=O)OCCCP(=O)(O)O)CC6)CSc6ccccc6)c(S(=O)(=O)C(F)(F)F)c5)cc4)CC3)c2)c(-c2ccc(Cl)cc2)n1C(C)C has a reported viability, T/C of 114%

viability, T/C recorded for this compound, C=C(F)C(=O)N1CCN(c2nc(OCC3CCCN3C)nc3c2CCN(c2cccc4cccc(Cl)c24)C3)CC1CC#N (stereo not drawn) + Cc1c(S(C)(=O)=O)c(-c2cc(F)cc(N3CCN(c4ccc(NS(=O)(=O)c5ccc(NC(CCN6CCC(C(=O)OCCCP(=O)(O)O)CC6)CSc6ccccc6)c(S(=O)(=O)C(F)(F)F)c5)cc4)CC3)c2)c(-c2ccc(Cl)cc2)n1C(C)C , is 96.5%

// field: viability, T/C; key: O=C(c1ccc(F)c(F)c1Nc1ccc(I)cc1F)N1CC(O)([C@@H]2CCCCN2)C1 + Cc1c(S(C)(=O)=O)c(-c2cc(F)cc(N3CCN(c4ccc(NS(=O)(=O)c5ccc(NC(CCN6CCC(C(=O)OCCCP(=O)(O)O)CC6)CSc6ccccc6)c(S(=O)(=O)C(F)(F)F)c5)cc4)CC3)c2)c(-c2ccc(Cl)cc2)n1C(C)C ; value = 64.2%
